- experiment: Human coffee intervention study: plasma concentrations after roasted coffee brew by UPLC-MS/MS
- Format: in vivo
- condition-details: human, plasma, oral, 200 mL, participant cbdu, 4 h after coffee; read-out: plasma concentration, individual
measure: concentration at 4 h (nM)
# value in nM; strip the unit string

Consider the compound C=C1C2CCC3C4(C)CC(O)CC(C(=O)OC5OC(C(=O)O)C(O)C(O)C5O)C4CCC3(C2)C1O [M1, atractyligenin-19-O-β-D-glucuronide] and give its measured concentration at 4 h.
2.9

* * *

- experiment: Human coffee intervention study: plasma concentrations after roasted coffee brew by UPLC-MS/MS
- Assay type: in vivo
- condition-details: human, plasma, oral, 200 mL, participant ayia, 10 h after coffee; read-out: plasma concentration, individual
measure: concentration at 10 h (nM)
Reply numerically in nM, unit not repeated.

molecule | concentration at 10 h / nM
C=C1C2CCC3C4(C)CC(O)CC(C(=O)OC5OC(C(=O)O)C(O)C(O)C5O)C4CCC3(C2)C1O [M1, atractyligenin-19-O-β-D-glucuronide] | 17.2

State the recorded concentration at 10 h for this entry: CC1C(=O)C23CCC4C(C(=O)OC5OC(C(=O)O)C(O)C(O)C5O)CC(O)CC4(C)C2CCC1C3 (stereo not drawn)
5.6

May I ask what concentration at 10 h has been recorded for C=C1[C@@H]2CC[C@@H]3[C@@](CCC4[C@H](C(=O)O)C[C@@H](O)C[C@]43C)(C2)[C@@H]1O (stereo partly drawn) ?
25.6
